System: HeLa Kyoto
Test: thermal stability score vs G1/S (z-score of summed log2 fold changes over temperatures); higher = more thermally stable than in G1/S
Conditions: cell cycle stage: mitosis
quantity-kind: thermal stability score
Give bare numbers.

Example entries begin here.
query-sequence: MSLKLQASNVTNKNDPKSINSRVFIGNLNTALVKKSDVETIFSKYGRVAGCSVHKGYAFVQYSNERHARAAVLGENGRVLAGQTLDINMAGEPKPDRPKGLKRAASAIYSGYIFDYDYYRDDFYDRLFDYRGRLSPVPVPRAVPVKRPRVTVPLVRRVKTNVPVKLFARSTAVTTSSAKIKLKSSELQAIKTELTQIKSNIDALLSRLEQIAAEQKANPDGKKKGDGGGAGGGGGGGGSGGGGSGGGGGGGSSRPPAPQENTTSEAGLPQGEARTRDDGDEEGLLTHSEEELEHSQDTDADDGALQ [RALY]
system-under-test: HeLa Kyoto
quantity-kind: thermal stability score
result: 8.45
//
query-sequence: MAASRPLSRFWEWGKNIVCVGRNYADHVREMRSAVLSEPVLFLKPSTAYAPEGSPILMPAYTRNLHHELELGVVMGKRCRAVPEAAAMDYVGGYALCLDMTARDVQDECKKKGLPWTLAKSFTASCPVSAFVPKEKIPDPHKLKLWLKVNGELRQEGETSSMIFSIPYIISYVSKIITLEEGDIILTGTPKGVGPVKENDEIEAGIHGLVSMTFKVEKPEY [FAHD1]
system-under-test: HeLa Kyoto;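 also: synchronized HeLa Kyoto cells, proteins quantified by TMT10plex mass spectrometry, three biological replicates, mitosis taken 0.5 h after nocodazole release, G1/S directly after double thymidine block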
quantity-kind: thermal stability score
result: -1.65

# ---- query sequence ----
Input: # get_value(readout='thermal stability score', item= MSSIGTGYDLSASTFSPDGRVFQVEYAMKAVENSSTAIGIRCKDGVVFGVEKLVLSKLYEEGSNKRLFNVDRHVGMAVAGLLADARSLADIAREEASNFRSNFGYNIPLKHLADRVAMYVHAYTLYSAVRPFGCSFMLGSYSVNDGAQLYMIDPSGVSYGYWGCAIGKARQAAKTEIEKLQMKEMTCRDIVKEVAKIIYIVHDEVKDKAFELELSWVGELTNGRHEIVPKDIREEAEKYAKESLKEEDESDDDNM [PSMA3] )
Output: -3.19
